Reference source for all entries: patent US12662489B2

molecular target: MTHFD2 recombinant human enzyme (Homo sapiens); test: MTHFD2 inhibition assay (NAD(P)H-Glo luminescence)
Sequence (P13995 36-350): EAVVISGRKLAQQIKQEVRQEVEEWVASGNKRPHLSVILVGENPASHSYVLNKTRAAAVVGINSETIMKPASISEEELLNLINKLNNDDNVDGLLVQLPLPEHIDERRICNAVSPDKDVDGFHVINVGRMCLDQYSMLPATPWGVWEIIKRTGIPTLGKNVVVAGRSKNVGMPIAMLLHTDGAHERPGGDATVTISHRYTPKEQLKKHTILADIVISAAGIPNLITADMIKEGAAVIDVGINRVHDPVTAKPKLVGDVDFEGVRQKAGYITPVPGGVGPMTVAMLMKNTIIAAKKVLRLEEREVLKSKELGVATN
Below, each of the molecules is paired with its reported IC50 value.
Recorded Endpoint: IC50

1) COC[C@H]1CN(c2cc(Cl)c3c4c(c(=O)oc3c2C)CN(C(=O)c2cc(OC)c(C(=O)NS(=O)(=O)N3CC5CC5C3)cc2F)CC4)CCN1C (some centres unmarked) [Example 325]: 1 to 10 nM
2) COC[C@H]1CN(c2cc(C)c3c4c(c(=O)oc3c2C)CN(C(=O)c2ccc(C(=O)NS(=O)(=O)N3CCCC3)c(N3C5CCC3CC5)c2)CC4)CCN1C [Example 121]: 10 to 100 nM
3) COC[C@H]1CN(c2ccc3c4c(c(=O)oc3c2C)CN(C(=O)c2cc(OC3CCCC3)c(C(=O)NS(=O)(=O)N(C)C)c(C(F)(F)F)c2)CC4)CCN1C [Example 117]: 100 to 1000 nM
4) COC[C@H]1CN(c2cc(C)c3c4c(c(=O)oc3c2C)CN(C(=O)c2cc(C(=O)NS(=O)(=O)N3CCCC3)c(OC3CCC3)cc2F)CC4)CCN1C [Example 165]: 100 to 1000 nM
5) COC[C@H]1CN(c2cc(Cl)c3c4c(c(=O)oc3c2C)CN(C(=O)c2cc(N(C)C)c(C(=O)NS(=O)(=O)N3CCCCC3)cc2F)CC4)CCN1C [Example 275]: 10 to 100 nM
6) COC[C@H]1CN(c2ccc3c4c(c(=O)oc3c2C)CN(C(=O)c2cc(N(C)C)c(C(=O)NS(=O)(=O)N3CC5CC5C3)cc2F)CC4)CCN1C (some centres unmarked) [Example 181]: 10 to 100 nM
7) COC[C@H]1CN(c2ccc3c4c(c(=O)oc3c2C)CN(C(=O)c2cc(F)c(C(=O)NS(=O)(=O)C3(C)CC3)c(N3C5CCC3CC5)c2)CC4)CCN1C [Example 22]: 1 to 10 nM
8) COC[C@H]1CN(c2ccc3c4c(c(=O)oc3c2)CN(C(=O)c2ccc(C(=O)NS(=O)(=O)N3CCCC3)c(OC3CCC3)c2F)CC4)CCN1C [Example 182]: 100 to 1000 nM
9) COC[C@H]1CN(c2ccc3c4c(c(=O)oc3c2C)CN(C(=O)c2cc(N3CCC3)c(C(=O)NS(=O)(=O)N3CC5CC5C3)cc2F)CC4)CCN1C (some centres unmarked) [Example 203]: 10 to 100 nM
10) COC[C@H]1CN(c2cc(C)c3c4c(c(=O)oc3c2C)CN(C(=O)c2ccc(C(=O)NS(=O)(=O)C3(C)CC3)c(OC3CCC3)c2)CC4)CCN1C [Example 2]: 10 to 100 nM
11) COC[C@H]1CN(c2ccc3c4c(c(=O)oc3c2C)CN(C(=O)c2ccc(C(=O)NS(=O)(=O)N(C)C)c(OC3CCCC3)c2F)CC4)CCN1C [Example 5]: 10 to 100 nM
12) COC[C@H]1CN(c2cc(C)c3c4c(c(=O)oc3c2C)CN(C(=O)c2ccc(C(=O)NS(=O)(=O)N3CCCC3)c(N(C)C)c2F)CC4)CCN1C [Example 138]: 10 to 100 nM
13) COC[C@H]1CN(c2cc(C)c3c4c(c(=O)oc3c2C)CN(C(=O)c2ccc(C(=O)NS(=O)(=O)C3(C)CC3)c(N(C)C3CC3)c2)CC4)CCN1C [Example 83]: 1 to 10 nM
14) COC[C@H]1CN(c2ccc3c4c(c(=O)oc3c2C)CN(C(=O)c2ccc(C(=O)NS(=O)(=O)N3CCCC3)c(N(C)C)c2F)CC4)CCN1C [Example 139]: 100 to 1000 nM
15) COC[C@H]1CN(c2cc(C)c3c4c(c(=O)oc3c2C)CN(C(=O)c2ccc(C(=O)NS(=O)(=O)N3CCC(F)CC3)cc2F)CC4)CCN1C [Example 204]: 10 to 100 nM
16) COC[C@H]1CN(c2cc(C)c3c4c(c(=O)oc3c2C)CN(C(=O)c2cc(N(C)C)c(C(=O)NS(=O)(=O)N3CCCC3)cc2F)CC4)CCN1C [Example 144]: 1 to 10 nM
17) COC[C@H]1CN(c2cc(C)c3c4c(c(=O)oc3c2C)CN(C(=O)c2cc(N(C)C)c(C(=O)NS(=O)(=O)N3CCC[C@H]3C(F)(F)F)cc2F)CC4)CCN1C [Example 292]: 10 to 100 nM
18) COC[C@H]1CN(c2cc(C)c3c4c(c(=O)oc3c2C)CN(C(=O)c2ccc(C(=O)NS(=O)(=O)N(C)C)c(N3CCCC3)c2F)CC4)CCN1C [Example 70]: 1 to 10 nM
19) CCOc1c(C(=O)N2CCc3c(c(=O)oc4c(C)c(N5CCN(C)[C@@H](COC)C5)cc(C)c34)C2)ccc(C(=O)NS(=O)(=O)N2CCCC2)c1F [Example 223]: 1 to 10 nM
20) COC[C@H]1CN(c2ccc3c4c(c(=O)oc3c2Cl)CN(C(=O)c2ccc(C(=O)NS(=O)(=O)N(C)C(C)C)c(OC3CCCC3)c2F)CC4)CCN1C [Example 29]: 10 to 100 nM
21) COC[C@H]1CN(c2cc(Cl)c3c4c(c(=O)oc3c2C)CN(C(=O)c2cc(OC)c(C(=O)NS(=O)(=O)N3C5CCC3CC5)cc2F)CC4)CCN1C [Example 324]: 10 to 100 nM
22) COC[C@H]1CN(c2cc(C)c3c4c(c(=O)oc3c2C)CN(C(=O)c2cc(OC3CCCC3)c(C(=O)NS(=O)(=O)N(C)C)c(N3CCCC3)c2)CC4)CCN1C [Example 127]: 10 to 100 nM
23) COC[C@H]1CN(c2cc(C)c3c4c(c(=O)oc3c2C)CN(C(=O)c2ccc(C(=O)NS(=O)(=O)N3CCCCC3)c(OC)c2F)CC4)CCN1C [Example 239]: 10 to 100 nM
